Cited source for all entries: patent US20170217976A1

log10(Ki) listing for selected compounds.
# systemTested: MOR (Rattus norvegicus, UniProt P33535)
# Construct: from tissue
# Sequence (P33535 whole entry): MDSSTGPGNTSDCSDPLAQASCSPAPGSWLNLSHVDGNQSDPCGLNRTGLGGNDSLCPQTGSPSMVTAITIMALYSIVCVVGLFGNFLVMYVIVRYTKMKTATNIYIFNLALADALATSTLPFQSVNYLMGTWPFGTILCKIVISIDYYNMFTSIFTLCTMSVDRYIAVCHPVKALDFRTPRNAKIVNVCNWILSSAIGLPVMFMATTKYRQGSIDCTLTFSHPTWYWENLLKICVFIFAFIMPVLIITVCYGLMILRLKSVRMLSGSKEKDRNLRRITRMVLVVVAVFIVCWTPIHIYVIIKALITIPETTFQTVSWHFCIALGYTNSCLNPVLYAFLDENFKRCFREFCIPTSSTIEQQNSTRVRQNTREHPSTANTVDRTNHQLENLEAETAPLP
# method: Opioid receptor binding, MOR, rat brain membranes
# cond: Binding Ki MOR, Table 1-4, rat brain membranes
measuredMetric: log10(Ki) (log10 of the value in nM)

# compound, log10(Ki)
measured = [
    ("CO[C@@]12CC[C@@H](N[C@@H](CCC(N)=O)C(=O)O)[C@@H]3Oc4c(O)ccc5c4[C@@]31CCN(C)[C@@H]2C5 [Compound 18]", 0.39),
    ("CO[C@@]12CC[C@H](N[C@@H](CCCCN)C(=O)O)[C@@H]3Oc4c(O)ccc5c4[C@@]31CCN(C)[C@@H]2C5 [Compound 38]", -0.72),
    ("CO[C@@]12CC[C@H](N[C@@H](CO)C(=O)O)[C@@H]3Oc4c(O)ccc5c4[C@@]31CCN(C)[C@@H]2C5 [Compound 36]", 0.34),
    ("COC12CCC(NC(C(=O)O)C(C)C)C3Oc4c(O)ccc5c4C31CCN(C)C2C5 (single isomer, unassigned) [Compound 29]", 0.48),
    ("CO[C@@]12CC[C@@H](N[C@@H](CC(C)C)C(=O)O)[C@@H]3Oc4c(O)ccc5c4[C@@]31CCN(C)[C@@H]2C5 [Compound 41]", 0.12),
]

====

# systemTested: MOR (Rattus norvegicus, UniProt P33535)
# Construct: from tissue
# method: Opioid receptor binding, MOR, rat brain membranes
# cond: Binding Ki MOR, Table 2-6, rat brain membranes
pKi: −log10 of the molar value.
Quick reference for pKi among some compounds
measuredMetric: pKi

# compound, systemTested, measuredMetric, valueReported
rows = [
    ("COC12CCC(NC(C(=O)O)C(C)C)C3Oc4c(O)ccc5c4C31CCN(CC1CC1)C2C5 (single isomer, unassigned) [Compound 69]", "MOR (Rattus norvegicus, UniProt P33535)", "pKi", 9.18),
    ("CC(C)(C)OC(=O)[C@H](Cc1ccccc1)N[C@H]1CC[C@@]2(O)[C@H]3Cc4ccc(O)c5c4[C@@]2(CCN3CC2CC2)[C@H]1O5", "MOR (Rattus norvegicus, UniProt P33535)", "pKi", 9.00),
    ("CO[C@@]12CC[C@H](NCCCC(=O)O)[C@@H]3Oc4c(O)ccc5c4[C@@]31CCN(CC1CC1)[C@@H]2C5", "MOR (Rattus norvegicus, UniProt P33535)", "pKi", 8.92),
    ("O=C(O)C(Cc1ccccc1)NC1CCC2(O)C3Cc4ccc(O)c5c4C2(CCN3CC2CC2)C1O5 (single isomer, unassigned) [Compound 60]", "MOR (Rattus norvegicus, UniProt P33535)", "pKi", 8.74),
    ("CC[C@H](C)[C@H](N[C@@H]1CC[C@@]2(OC)[C@H]3Cc4ccc(O)c5c4[C@@]2(CCN3CC2CC2)[C@H]1O5)C(=O)OC(C)(C)C", "MOR (Rattus norvegicus, UniProt P33535)", "pKi", 9.01),
]

====

# systemTested: MOR (Rattus norvegicus, UniProt P33535)
# Construct: from tissue
# method: Opioid receptor binding, MOR, rat brain membranes
# cond: Binding Ki (nM) MOR, in vitro binding assay, rat brain membranes
Checkbox rule: Ki lower than 0.2 nM = label 1; Ki not lower than 0.2 nM = label 0.

# molecule, className
measured = [
    ("CO[C@@]12CC[C@H](NCCCC(=O)OC(C)(C)C)[C@@H]3Oc4c(O)ccc5c4[C@@]31CCN(C)[C@@H]2C5 [15-t-Bu ester]", "label 0"),
    ("CO[C@@]12CC[C@@H](N[C@H](C(=O)OC(C)(C)C)[C@@H](C)O)[C@@H]3Oc4c(O)ccc5c4[C@@]31CCN(C)[C@@H]2C5 [35-t-Bu ester]", "label 0"),
    ("CO[C@@]12CC[C@H](N[C@H](C(=O)N[C@@H](Cc3ccc(O)cc3)C(=O)OC(C)(C)C)C(C)C)[C@@H]3Oc4c(O)ccc5c4[C@@]31CCN(C)[C@@H]2C5 [32-t-Bu ester]", "label 1"),
    ("CO[C@@]12CC[C@@H](N[C@@H](CCC(N)=O)C(=O)OC(C)(C)C)[C@@H]3Oc4c(O)ccc5c4[C@@]31CCN(C)[C@@H]2C5 [18-t-Bu ester]", "label 0"),
]

====

# systemTested: MOR (Rattus norvegicus, UniProt P33535)
# Construct: from tissue
# method: Opioid receptor binding, MOR, rat brain membranes
# cond: Binding Ki MOR, Table 2-6, rat brain membranes
Below, each of the compounds is paired with its reported Ki value.

# compound, Ki (nM)
rows = [
    ("COC12CCC(NC(C(=O)O)C(C)C)C3Oc4c(O)ccc5c4C31CCN(CC1CC1)C2C5 (single isomer, unassigned) [Compound 71]", 1.52),
    ("CC(C)(C)OC(=O)[C@H](Cc1ccccc1)N[C@@H]1CC[C@@]2(O)[C@H]3Cc4ccc(O)c5c4[C@@]2(CCN3CC2CC2)[C@H]1O5", 5.49),
    ("CO[C@@]12CC[C@@H](NCC(=O)O)[C@@H]3Oc4c(O)ccc5c4[C@@]31CCN(CC1CC1)[C@@H]2C5", 1.31),
    ("CO[C@@]12CC[C@H](N[C@@H](Cc3ccccc3)C(=O)OC(C)(C)C)[C@@H]3Oc4c(O)ccc5c4[C@@]31CCN(CC1CC1)[C@@H]2C5", 0.68),
    ("CCO[C@@]12CC[C@@H](N[C@@H](Cc3ccccc3)C(=O)O)[C@@H]3Oc4c(O)ccc5c4[C@@]31CCN(CC1CC1)[C@@H]2C5", 1.04),
]

====

# systemTested: KOR (Cavia porcellus, UniProt P41144)
# Construct: from tissue
# Sequence (P41144 whole entry): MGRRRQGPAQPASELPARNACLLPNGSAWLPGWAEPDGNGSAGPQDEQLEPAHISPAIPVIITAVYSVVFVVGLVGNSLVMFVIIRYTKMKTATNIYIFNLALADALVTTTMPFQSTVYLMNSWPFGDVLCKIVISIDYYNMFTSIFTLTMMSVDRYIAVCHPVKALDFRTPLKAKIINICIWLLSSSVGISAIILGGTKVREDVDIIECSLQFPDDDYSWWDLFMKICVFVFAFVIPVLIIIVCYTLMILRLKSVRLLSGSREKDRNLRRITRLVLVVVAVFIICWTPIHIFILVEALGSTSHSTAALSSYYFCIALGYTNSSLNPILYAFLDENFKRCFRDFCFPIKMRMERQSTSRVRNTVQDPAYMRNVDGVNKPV
# method: Opioid receptor binding, KOR, guinea pig brain membranes
# cond: Binding Ki (nM) KOR, in vitro binding assay, guinea pig brain membranes
// values below are reported Ki
measuredMetric: Ki (nM)

# smilesInput, measuredMetric, readingUnit, valueReported
measured = [
    ("CO[C@@]12CC[C@@H](N[C@@H](CCC(N)=O)C(=O)OC(C)(C)C)[C@@H]3Oc4c(O)ccc5c4[C@@]31CCN(C)[C@@H]2C5", "Ki", "nM", 163),
    ("CO[C@@]12CC[C@H](NCCCC(=O)OC(C)(C)C)[C@@H]3Oc4c(O)ccc5c4[C@@]31CCN(C)[C@@H]2C5", "Ki", "nM", 8.82),
    ("CCO[C@@]12CC[C@@H](NCC(=O)O)[C@@H]3Oc4c(O)ccc5c4[C@@]31CCN(C)[C@@H]2C5", "Ki", "nM", 102),
]
